Tested system: E-selectin (Homo sapiens)
Sequence (P16581 whole entry): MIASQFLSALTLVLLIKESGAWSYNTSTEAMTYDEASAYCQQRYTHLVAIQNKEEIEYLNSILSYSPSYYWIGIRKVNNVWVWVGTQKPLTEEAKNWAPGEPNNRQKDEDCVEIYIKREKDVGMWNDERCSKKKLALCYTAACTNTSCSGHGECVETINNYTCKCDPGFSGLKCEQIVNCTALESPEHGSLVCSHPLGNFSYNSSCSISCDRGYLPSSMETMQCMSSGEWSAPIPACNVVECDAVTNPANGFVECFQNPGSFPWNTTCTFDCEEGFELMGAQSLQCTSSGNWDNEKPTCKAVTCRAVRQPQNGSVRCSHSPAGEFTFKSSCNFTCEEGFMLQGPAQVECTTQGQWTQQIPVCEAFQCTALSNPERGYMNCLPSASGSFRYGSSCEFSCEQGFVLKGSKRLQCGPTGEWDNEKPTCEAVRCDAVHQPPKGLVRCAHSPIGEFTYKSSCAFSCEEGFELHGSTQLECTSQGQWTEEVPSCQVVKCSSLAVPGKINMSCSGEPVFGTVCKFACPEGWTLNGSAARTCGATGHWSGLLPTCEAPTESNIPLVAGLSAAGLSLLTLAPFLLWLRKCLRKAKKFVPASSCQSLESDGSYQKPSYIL
Assay comment: Inhibition of selectin E in human endothelial cells
Type: cell-based, Endothelial cell

{"columns": ["Molecule", "IC50"],
 "data": [
  ["CNC(=O)c1cc2c(Oc3ccc(/C=C/C(=O)NCCN(CCO)CCO)cc3)cncc2s1", "680 nM"],
  ["CNC(=O)c1cc2c(Oc3ccc(N4CCOCC4)cc3)cncc2s1", "35 nM"],
  ["NC(=O)c1cc2c(Oc3ccc(C(=O)N4CCOCC4)cc3)cncc2s1", "870 nM"],
  ["CNC(=O)c1cc2c(Oc3ccc(C(=N)NO)cc3)cncc2s1", "13 nM"],
  ["CNC(=O)c1cc2c(Oc3ccc(C(=O)NCCN4CCOCC4)cc3)cncc2s1", "770 nM"],
  ["CNC(=O)c1cc2c(Oc3ccc(COCCOC)cc3)cncc2s1", "7 nM"],
  ["CNC(=O)c1cc2c(Oc3ccc(/C=C/C(=O)NCCc4c[nH]cn4)cc3)cncc2s1", "600 nM"],
  ["CNC(=O)c1cc2c(Oc3ccc(-c4noc(C(F)(F)F)n4)cc3)cncc2s1", "28 nM"],
  ["CNC(=O)c1cc2c(Oc3ccc(-n4cncn4)cc3)cncc2s1", "180 nM"],
  ["NC(=O)c1cc2c(Oc3ccc(I)cc3)cncc2s1", "6 nM"],
  ["CNC(=O)c1cc2c(Oc3ccc(Cl)cc3)cncc2s1", "8 nM"],
  ["NC(=O)c1cc2c(Oc3ccc(/C=C/C(=O)NCC(O)CO)cc3)cncc2s1 (stereo unspecified)", "> 715 nM"],
  ["CCOC(=O)c1cccc(Oc2cncc3sc(C(N)=O)cc23)c1", "630 nM"],
  ["NC(=O)c1cc2c(Oc3ccc(C(=O)NCCN4CCOCC4)cc3)cncc2s1", "> 1000 nM"],
  ["CNC(=O)c1cc2c(Oc3ccc(-c4nn[nH]n4)cc3)cncc2s1", "> 1000 nM"],
  ["CNC(=O)c1cc2c(Oc3ccc(/C=C/C(=O)NCC(O)CO)cc3)cncc2s1 (stereo unspecified)", "830 nM"],
  ["NC(=O)c1cc2c(Oc3ccc(Cl)c(F)c3)cncc2s1", "8 nM"],
  ["CNC(=O)c1cc2c(Oc3ccc(-n4ccnc4)cc3)cncc2s1", "2 nM"],
  ["NC(=O)c1cc2c(Oc3ccc(Cl)cc3Br)cncc2s1", "110 nM"],
  ["NC(=O)c1cc2c(Oc3ccc(C(O)CO)cc3)cncc2s1 (stereo unspecified)", "670 nM"],
  ["COCc1ccc(Oc2cncc3sc(C(N)=O)cc23)cc1", "16 nM"],
  ["NC(=O)c1cc2c(Oc3ccc(/C=C/C(=O)NCCN4CCOCC4)cc3)cncc2s1", "34 nM"],
  ["CNC(=O)c1cc2c(Oc3ccc(COCCOCCOC)cc3)cncc2s1", "6 nM"],
  ["NC(=O)c1cc2c(Oc3ccc(/C=C/C(=O)NCCN(CCO)CCO)cc3)cncc2s1", "650 nM"],
  ["CC(C)c1ccc(Oc2cncc3sc(C(N)=O)cc23)cc1", "76 nM"],
  ["NC(=O)c1cc2c(Oc3cccc(C(F)(F)F)c3)cncc2s1", "870 nM"],
  ["Cc1cc(Cl)ccc1Oc1cncc2sc(C(N)=O)cc12", "370 nM"],
  ["CNC(=O)c1cc2c(Oc3ccc(-c4cccs4)cc3)cncc2s1", "5 nM"],
  ["NC(=O)c1cc2c(Oc3ccc(N)cc3)cncc2s1", "35 nM"],
  ["NC(=O)c1cc2c(Oc3cccc(Br)c3)cncc2s1", "80 nM"],
  ["Cc1ccc(Oc2cncc3sc(C(N)=O)cc23)cc1", "20 nM"],
  ["NC(=O)c1cc2c(Oc3ccc(C(=O)N(C(=O)NC4CCCCC4)C4CCCCC4)cc3)cncc2s1", "115 nM"],
  ["CCOC(=O)c1ccc(Oc2cncc3sc(C(N)=O)cc23)cc1", "20 nM"],
  ["COCCOCc1ccc(Oc2cncc3sc(C(N)=O)cc23)cc1", "5 nM"],
  ["CNC(=O)c1cc2c(Oc3ccc(/C=C/C(=O)NCCN4CCOCC4)cc3)cncc2s1", "43 nM"],
  ["NC(=O)c1cc2c(Oc3ccc(Br)cc3)cncc2s1", "4 nM"],
  ["CNC(=O)c1cc2c(Oc3ccc(-c4cncn4C)cc3)cncc2s1", "150 nM"],
  ["CCOCCOCCOCC(F)(F)c1ccc(Oc2cncc3sc(C(=O)NC)cc23)cc1", "110 nM"],
  ["NC(=O)c1cc2c(Oc3ccc(COC4CCCCO4)cc3)cncc2s1 (stereo unspecified)", "2 nM"],
  ["CNC(=O)c1cc2c(Oc3ccc(-c4ccccc4)cc3)cncc2s1", "9 nM"],
  ["CNC(=O)c1cc2c(Oc3ccc(COC)cc3)cncc2s1", "13 nM"]
]}

---

Attribute: IC50
Tested system: E-selectin (Homo sapiens, UniProt P16581)
Assay comment: In vitro inhibitory potency compared to IL1-beta induced Selectin E in human endothelial cells (ELISA assay)
Format: cell-based, Endothelial cell

{"columns": ["Sample smiles", "Tested system", "Output unit", "IC50"],
 "data": [
  ["NC(=O)c1cc2c(Oc3ccc(Br)cc3)cncc2s1", "E-selectin (Homo sapiens, UniProt P16581)", "nM", 6],
  ["CNC(=O)c1cc2c(Oc3ccc(Cl)cc3)cncc2s1", "E-selectin (Homo sapiens, UniProt P16581)", "nM", 25],
  ["CNC(=O)c1cc2c(Oc3ccc(COCCOCCOC)cc3)cncc2s1", "E-selectin (Homo sapiens, UniProt P16581)", "nM", 5]
]}

---

Tested system: Intercellular adhesion molecule 1 (Homo sapiens)
Assay comment: In vitro inhibitory potency compared to TNF-alpha induced Intercellular adhesion molecule-1 expression in human endothelial cells (ELISA assay)
Type: cell-based, Endothelial cell

{"columns": ["Sample smiles", "Tested system", "Output unit", "IC50"],
 "data": [
  ["Cc1ccc(Sc2cncc3sc(C(N)=O)cc23)cc1", "Intercellular adhesion molecule 1 (Homo sapiens)", "nM", 15]
]}

---

Tested system: Intercellular adhesion molecule 1 (Homo sapiens)
Assay comment: Inhibition of intercellular adhesion molecule-1 (ICAM1) in human endothelial cells
Assay type: cell-based, Endothelial cell
pIC50: −log10 of the molar value.

{"columns": ["Sample smiles", "pIC50"],
 "data": [
  ["CNC(=O)c1cc2c(Oc3ccc(-c4cncn4C)cc3)cncc2s1", 6.44],
  ["CNC(=O)c1cc2c(Oc3ccc(/C=C/C(=O)NCCN4CCOCC4)cc3)cncc2s1", 7.28],
  ["NC(=O)c1cc2c(Oc3ccc(/C=C/C(=O)NCCN(CCO)CCO)cc3)cncc2s1", 6.09],
  ["CNC(=O)c1cc2c(Oc3ccc(-c4ccccc4)cc3)cncc2s1", 7.60],
  ["CNC(=O)c1cc2c(Oc3ccc(COCCOCCOC)cc3)cncc2s1", 8.30]
]}

---

Assay comment: Toxicity in HUVEC cell lysates
Type: cell-based, Lysate
Condition label: human
Assay readout: IC50 (µM)

{"columns": ["Sample smiles", "Assay readout", "Measured result"],
 "data": [
  ["Cc1ccc(Sc2cncc3sc(C(N)=O)cc23)cc1", "IC50", 152]
]}

---

Tested system: Intercellular adhesion molecule 1 (Homo sapiens, UniProt P05362)
Sequence (P05362 whole entry): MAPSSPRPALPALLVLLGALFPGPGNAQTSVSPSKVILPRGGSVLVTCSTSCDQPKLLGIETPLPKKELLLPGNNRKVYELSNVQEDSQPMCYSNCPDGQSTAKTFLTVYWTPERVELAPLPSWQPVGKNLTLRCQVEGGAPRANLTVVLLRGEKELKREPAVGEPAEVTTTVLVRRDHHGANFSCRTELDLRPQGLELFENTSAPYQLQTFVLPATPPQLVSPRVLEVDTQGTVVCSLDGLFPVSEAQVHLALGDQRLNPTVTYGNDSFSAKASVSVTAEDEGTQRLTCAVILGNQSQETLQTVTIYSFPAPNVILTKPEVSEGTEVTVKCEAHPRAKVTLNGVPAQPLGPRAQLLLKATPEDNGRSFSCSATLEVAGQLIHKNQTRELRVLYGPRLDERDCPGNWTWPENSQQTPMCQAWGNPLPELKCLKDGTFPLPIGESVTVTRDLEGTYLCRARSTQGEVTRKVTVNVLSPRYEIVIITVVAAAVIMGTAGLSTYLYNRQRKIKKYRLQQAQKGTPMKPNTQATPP
Assay comment: Inhibition of intercellular adhesion molecule-1 (ICAM1) in human endothelial cells
Type: cell-based, Endothelial cell
pIC50: −log10 of the molar value.
Criterion: pIC50 meeting or surpassing 7. Met: 1 (yes). Not met: 0 (no).

{"columns": ["Sample smiles", "Class"],
 "data": [
  ["CNC(=O)c1cc2c(Oc3ccc(-c4cccs4)cc3)cncc2s1", "1 (yes)"],
  ["NC(=O)c1cc2c(Oc3ccc(Br)cc3)cncc2s1", "1 (yes)"],
  ["NC(=O)c1cc2c(Oc3cccc(C(F)(F)F)c3)cncc2s1", "0 (no)"],
  ["CNC(=O)c1cc2c(Oc3ccc(Cl)cc3)cncc2s1", "1 (yes)"],
  ["NC(=O)c1cc2c(Oc3ccc(/C=C/C(=O)NCCN4CCOCC4)cc3)cncc2s1", "1 (yes)"],
  ["Cc1cc(Cl)ccc1Oc1cncc2sc(C(N)=O)cc12", "0 (no)"]
]}
